System: HCC 2998
protocol: NCI tumour cell line growth inhibition, 48 h
Active and inactive are the calls of the source. Rule as the data show it: active = GI50 up to about 1.1 µM and inactive = higher.
recorded_endpoint: GI50

The examples below pair each entry with its known result.
- compound: "Oc1[nH]c(Nc2ccc(Cl)cc2)nc2ncnc1-2"
  GI50: "98.6 µM (inactive)"
- compound: "COc1ccc(/C(=N/O)c2ccccc2C2=Nc3ccccc3C(NCc3ccccc3)O2)cc1C (stereo unspecified)"
  GI50: "20.9 µM (inactive)"
- compound: "Cc1ccc(/N=N/c2c(O)ccc3cc(S(=O)(=O)O)ccc23)c(C)c1"
  GI50: "> 100 µM (inactive)"

Query string: Requested read-out GI50, target or system HCC 2998, entry O=C(O)/C(=C\c1ccc(O)cc1)c1cccc2ccccc12
Result string: > 100 µM (inactive)

Query string: Similarly, COC(=O)N/N=C(\C)C(CN(C)C)C(c1ccccc1)c1c(O)c2ccccc2oc1=O (stereo unspecified) ?
Result string: > 100 µM (inactive)

Query string: Similarly, CCOC(=O)CC1NC(=O)CS1 (stereo unspecified) ?
Result string: > 100 µM (inactive)

###

Tested on: 786-0
protocol: NCI tumour cell line growth inhibition, 48 h
The source made the active and inactive calls. Rule as the data show it: active = GI50 up to about 1.1 µM and inactive = higher.
// reported GI50 per item

The examples below pair each entry with its known result.
- molecule: "COc1cc(/C=C/C(=O)OC[C@H](Br)[C@H](OC(C)=O)c2ccc3c(c2)OCO3)cc(OC)c1OC"
  tgt: "786-0"
  result: "> 100 µM (inactive)"
- molecule: "CC12CC[C@@H](C(C)(C)O)C1[C@@H](O)CC1(C)C2CCC2[C@@]3(C)CC[C@H](O)C(C)(C)C3C(O)C[C@]21C (some centres undefined)"
  tgt: "786-0"
  result: "12.1 µM (inactive)"
- molecule: "O=C(O)/C(=C\\c1ccc(O)cc1)c1cccc2ccccc12"
  tgt: "786-0"
  result: "> 100 µM (inactive)"
- molecule: "NC1CCC(N(CC(=O)O)CC(=O)O)C(N(CC(=O)O)CC(=O)O)C1 (centres undefined)"
  tgt: "786-0"
  result: "> 10 µM (inactive)"
- molecule: "CCOC(=O)c1c2c(n3ccccc13)C(=O)c1ccccc1C2=O"
  tgt: "786-0"
  result: "19.1 µM (inactive)"

Now let's try a different one.
Query string: Requested read-out GI50, target or system 786-0, entry COc1ccc(C(=O)/C=C/c2cc(O)c(O)c(F)c2F)c(OC)c1
Result string: 8 µM (inactive)

###

System: HOP-62
protocol: NCI tumour cell line growth inhibition, 48 h
Active and inactive are the calls of the source. Rule as the data show it: active = GI50 up to about 1.1 µM and inactive = higher.
Your answer must be one of the following: 1 = active, 0 = inactive

- molecule: "O=C(C#Cc1ccccc1)N1CCCCC1"
  qualitative_label: 0
- molecule: "O=[N+]([O-])c1ccc(C2ON=C(c3ccccc3)N2C23CC4CC(CC(C4)C2)C3)cc1 (centres undefined)"
  qualitative_label: 0
- molecule: "N#CC(/C(=N/NC(=O)C(=O)NN)C(=O)Nc1nc([N+](=O)[O-])cs1)c1ccc(Cl)cc1 (centres undefined)"
  qualitative_label: 0
- molecule: "CCCCCC(=O)N[C@@H](c1ccco1)[C@@H](O)C(=O)O[C@H]1C[C@@]2(O)[C@@H](OC(=O)c3ccccc3)[C@@H]3[C@]4(OC(C)=O)CO[C@@H]4C[C@H](O)[C@@]3(C)C(=O)[C@H](OC(C)=O)C(=C1C)C2(C)C"
  qualitative_label: 1
- molecule: "CC(C)OP(=O)(OC(C)C)/C(=N/Nc1ccc([N+](=O)[O-])cc1)NNC(=O)c1ccccc1"
  qualitative_label: 0
- molecule: "O=C1SC(c2ccccc2)(c2ccccc2)c2ccccc21"
  qualitative_label: 0

Query string: Hi team, can someone confirm the assay call for O=c1c2ccccc2n2nnc3ccc(NCCNCCO)c1c32 ?
Result string: 0

Query string: Similarly, NC(=O)c1cccc(C2OC(COP(=O)(O)O)C(O)C2O)c1 (centres undefined) ?
Result string: 0

Query string: Similarly, O=C1C(Sc2ccc3ccccc3c2)=C(Sc2ccc3ccccc3c2)C(=O)c2ccccc21 ?
Result string: 0

###

Test system: SF-295
protocol: NCI tumour cell line growth inhibition, 48 h
Active and inactive are the calls of the source. Rule as the data show it: active = GI50 up to about 1.1 µM and inactive = higher.
recorded_endpoint: GI50

- compound: "O=C1/C(=C/c2cccc(Cl)c2)CCCc2ccccc21"
  tgt: "SF-295"
  GI50: "17.5 µM (inactive)"
- compound: "CSC(SC)=C(C#N)C(=O)Nc1cccc(Cl)c1"
  tgt: "SF-295"
  GI50: "42.6 µM (inactive)"
- compound: "CC(C)(C)c1ccc(O)c(Br)c1"
  tgt: "SF-295"
  GI50: "> 100 µM (inactive)"
- compound: "N#C/C(N)=C(C#N)/N=C/Nc1ccccc1N"
  tgt: "SF-295"
  GI50: "> 100 µM (inactive)"

Now let's try a different one.
Query string: GI50 for CC1OC(OC2C(O)C(O)C(O)C(O)C2O)C(N)CC1NC(=N)C(=O)O (stereo not given) ?
Result string: > 100 µM (inactive)

###

Tested on: A549
protocol: NCI tumour cell line growth inhibition, 48 h
The source made the active and inactive calls. No stated cut-off is given here; in the data, active = GI50 up to about 1.1 µM and inactive = higher.
// reported GI50 per item

The examples below pair each entry with its known result.
- compound: "Cc1c2ccncc2c(C)c2c1[nH]c1ccc(O)c(OCC(F)(F)F)c12"
  result: "3.9 µM (inactive)"
- compound: "O=c1oc2cc(/N=C/c3ccccc3Cl)ccc2c2ccccc12"
  result: "> 100 µM (inactive)"
- compound: "CC1=CC(C)(C)N=C2SC(c3ccc(Cl)cc3)=NN12"
  result: "40 µM (inactive)"
- compound: "CCOC(=O)CNc1nnnn1C1OC(CO)C(O)C1O (stereo unspecified)"
  result: "> 100 µM (inactive)"
- compound: "CC[C@@]1(O)C(=O)OCc2c1cc1n(c2=O)Cc2c-1nc1ccc(N)cc1c2CC[Si](C)(C)C"
  result: "< 0.01 µM (active)"
- compound: "COc1ccc2c(=O)c(O)c(-c3ccc(OC)c(OC)c3)oc2c1"
  result: "4.92 µM (inactive)"

Query string: GI50 for COC(=O)C1CCC2(CC1)NC(=O)NC2=O (stereo unspecified) ?
Result string: > 100 µM (inactive)

Query string: Similarly, CC(C)(C)c1cc(C=C(C#N)C#N)cc(C(C)(C)C)c1O ?
Result string: 0.316 µM (active)

Query string: Similarly, Cc1ccc([N+](=O)[O-])cc1S(=O)(=O)Nc1ccc(C2=NN(S(=O)(=O)c3cc([N+](=O)[O-])ccc3C)C(c3ccccc3)C2)cc1 (stereo unspecified) ?
Result string: 29.4 µM (inactive)

Query string: Similarly, CC(C)(C)c1ccc(O)c(Br)c1 ?
Result string: > 100 µM (inactive)

Query string: Similarly, CSc1ccc(/C=C2\CNC/C(=C\c3ccc(SC)cc3)C2=O)cc1 ?
Result string: > 237 µM (inactive)

Query string: Similarly, COc1ccccc1NC(=O)CC(=O)NN ?
Result string: > 100 µM (inactive)

Query string: Similarly, COc1ccc2[nH]c(C(=O)N3CC(CCl)c4c3cc(N)c3ccccc43)cc2c1 (stereo unspecified) ?
Result string: < 0.01 µM (active)

Query string: Similarly, C=CCN1C(=O)C[C@H](Cc2ccccc2)NC(=O)C[C@H](Cc2ccccc2)N(CC=C)C(=O)C[C@H](Cc2ccccc2)NC(=O)C[C@@H]1Cc1ccccc1 ?
Result string: 4.83 µM (inactive)

Query string: Similarly, COc1ccc(-c2cc(-c3ccco3)c(C#N)c(=O)[nH]2)cc1 ?
Result string: 91.4 µM (inactive)

Query string: Similarly, CC(C)[Si](OC1=C(C(=O)N(C)c2ccccc2Cl)CCC1)(C(C)C)C(C)C ?
Result string: 15 µM (inactive)

###

Test system: KM12
protocol: NCI tumour cell line growth inhibition, 48 h
The source made the active and inactive calls. Rule as the data show it: active = GI50 up to about 1.1 µM and inactive = higher.
recorded_endpoint: GI50

- molecule: "COC(=O)C1CCN(C(=O)OC(C)(C)C)CC1"
  result: "> 100 µM (inactive)"
- molecule: "CC(=O)Oc1c(OC(C)C)c(C)c(O[Si](C(C)C)(C(C)C)C(C)C)c2[nH]c3ccccc3c12"
  result: "67.3 µM (inactive)"
- molecule: "Cc1cc(Cc2cc(C)c(N)cc2N)c(N)cc1N"
  result: "85.5 µM (inactive)"
- molecule: "CC(C)(C)c1cc(C=C(C#N)C#N)cc(C(C)(C)C)c1O [TYRPHOSTIN A9]"
  result: "0.395 µM (active)"
- molecule: "CC1(C)C2C=CC1C(=O)CC2 (configuration not stated)"
  result: "> 100 µM (inactive)"
- molecule: "Oc1ccc(O)c(-n2cccn2)c1"
  result: "> 100 µM (inactive)"
- molecule: "CCOC(=O)C(C)OC(=O)c1ccc(C)cc1 (configuration not stated)"
  result: "> 100 µM (inactive)"
- molecule: "COC(=O)c1ccc2cc(O)ccc2c1"
  result: "39.9 µM (inactive)"
- molecule: "COCCN(CCNC(=O)c1cccc2c(N)c3cccc(C)c3nc12)CCOC"
  result: "0.83 µM (active)"
- molecule: "Nc1nc(N)c2ncn(-c3ccc(Br)cc3)c2n1"
  result: "14.4 µM (inactive)"

Query string: GI50 for FC(F)(F)C1(Cl)C(c2ccccc2)=C1c1ccccc1 ?
Result string: 15.6 µM (inactive)

Query string: Similarly, COc1cccc(C2c3cc4c(cc3OC(C)(N3CCCC3)C2C)OCO4)c1 (configuration not stated) ?
Result string: 4 µM (inactive)
